B1: NEK8 (parent)
chain: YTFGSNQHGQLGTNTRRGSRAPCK

Variants of: B1
protocol.description: protein stability index of a GFP-peptide fusion (GPS, HEK-293T) (PSI 1-6); higher = more stable;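 further: lentivirally expressed fusions sorted by FACS into six bins by GFP to DsRed ratio, PSI derived from sequencing read proportions per bin multiplied by bin number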
test.parameters: c terminus: a fixed tail appended
endpoint.name: protein stability index
// print number alone

- variant.identifier: "Y1E"
  protein stability index: 4.47
- variant.identifier: "G18P"
  protein stability index: 3.53
- variant.identifier: "G9K"
  protein stability index: 4.12
- variant.identifier: "G18R"
  protein stability index: 3.95
- variant.identifier: "P22I"
  protein stability index: 3.94
- variant.identifier: "R17E"
  protein stability index: 4.07

[ask] Recorded protein stability index for `G12H` , please?
[reply] 4.37

[ask] Recorded protein stability index for `F3G` , please?
[reply] 2.29

[ask] Recorded protein stability index for `G18D` , please?
[reply] 3.94
